Test system: Bacillus subtilis
method_summary: cleaved RNA product abundance (RNA/gDNA barcode ratio) relative to median wild-type variant (ratio to wild type); higher = more accumulation of the downstream cleavage product
study_conditions: experiment (reporter, strain, medium): exp 8a: truncated aprE reporter, strain BJT201 with 2% xylose (RNase J1 expressed); cleavage site: glnRA (positions -5 to +31 mutated)
Could you please report measured cleaved RNA product abundance for the items listed next?
Could you respond with only the numeric value?

The measured cleaved RNA product abundance associated with `CGACATGTCCCGCTTCTTTCATTATTCCCTTAGCAACTGTTTTGCTATATACATTTACCTTTTAAGAGGAGGAAT` reads 0.221

The measured cleaved RNA product abundance associated with `CGACATGTCCCGCTTCTTTCATTAATCCGTGAGCAACTGTTTTGCTATATACTTTTACCTTTTAAGAGGAGGAAT` reads 0.154

The measured cleaved RNA product abundance associated with `CGACATGTCCCGCTTCTTTCATTAATCCGTAAACAACTCTTTTGCTATATACATTTACCTTTTAAGAGGAGGAAT` reads 0.202

The measured cleaved RNA product abundance associated with `CGACATGTCCCGCTTCTTTCATTAATCCGTTAGCAACTGTTTTCCTATAAACATTTACCTTTTAAGAGGAGGAAT` reads 0.526

The measured cleaved RNA product abundance associated with `CGACATGTCCCGCTTCTTTCATTAATCCGTTAGCAACTGTTTTTCTATATAGATTTACCTTTTAAGAGGAGGAAT` reads 0.925

The measured cleaved RNA product abundance associated with `CGACATGTCCCGCTTCTTTCATTAATCCGTTAGCAACTATTCTGCTATATACATTTACCTTTTAAGAGGAGGAAT` reads 0.838

The measured cleaved RNA product abundance associated with `CGACATGTCCCGCTTCTTTCATTAATCCGTTAGCAACTGTTTTGCTATATCCATTGACCTTTTAAGAGGAGGAAT` reads 0.461

The measured cleaved RNA product abundance associated with `CGACATGTCCCGCTTCTTTCATTAACCCTTTAGCAACTGTTTTGCTATATACATTTACCTTTTAAGAGGAGGAAT` reads 0.181

The measured cleaved RNA product abundance associated with `CGACATGTCCCGCTTCTTTCATTAATCCATTAGCAACTGTTCTGCTATATACATTTACCTTTTAAGAGGAGGAAT` reads 0.271

The measured cleaved RNA product abundance associated with `CGACATGTCCCGCTTCTTTCATTAATCCGTTAGCATCTGTTTTGATATATACATTTACCTTTTAAGAGGAGGAAT` reads 0.491

The measured cleaved RNA product abundance associated with `CGACATGTCCCGCTTCTTTCATTAATCCGTTAGCAACTGTCTTACTATATACATTTACCTTTTAAGAGGAGGAAT` reads 0.324

The measured cleaved RNA product abundance associated with `CGACATGTCCCGCTTCTTTCATTAATCCCTTAGCAACTGTTTTGCTATATACACTTAACTTTTAAGAGGAGGAAT` reads 0.255

The measured cleaved RNA product abundance associated with `CGACATGTCCCGCTTCTTTCATTAATCCGTTAGCAAGTGTTTTGCTATAAACATTTACCTTTTAAGAGGAGGAAT` reads 0.659

The measured cleaved RNA product abundance associated with `CGACATGTCCCGCTTCTTTCATTAATCCGTTAGCAACTGTTTTGCTATATACCTTTACCTTTTAAGAGGAGGAAT` reads 0.283

The measured cleaved RNA product abundance associated with `CGACATGTCCCGCTTCTTTCATTAATCCGTTAGCAACCGTTTTGCTAAATACATTTACCTTTTAAGAGGAGGAAT` reads 0.432

----------
Could you please report measured cleaved RNA product abundance for the items listed next?
Tested on: Bacillus subtilis
method_summary: cleaved RNA product abundance (RNA/gDNA barcode ratio) relative to median wild-type variant (ratio to wild type); higher = more accumulation of the downstream cleavage product
study_conditions: experiment (reporter, strain, medium): exp 4a: truncated aprE reporter, strain BJT201 with 2% xylose (RNase J1 expressed); cleavage site: cggR-gapA (positions -7 to +36 mutated)
Could you respond with only the numeric value?

Value (cleaved RNA product abundance, Bacillus subtilis) for record `ACAGACGAAGGAGCCGCAAAGAAGTTTTTAAGGGATGAATAAACCCTCAATATAAATATCTCTCACTTATTTAAA` = 0.17

Value (cleaved RNA product abundance, Bacillus subtilis) for record `ACAGACGAAGGAGCCGCAAAGAATTAATTAAGGGATGAATAATCCCTCAATATAAATATCTCTCACTTATTTAAA` = 0.36

Value (cleaved RNA product abundance, Bacillus subtilis) for record `ACAGACGAAGGAGCCGCAAAGAAGTTATTAAGGGATGAATAATACCTCAATATAAATAACTCTCACTTATTTAAA` = 0.0774

Value (cleaved RNA product abundance, Bacillus subtilis) for record `ACAGACGAAGGAGCCGCAAAGAAGTTATTAAAGGATGAATAATCACTCAATATAAATATCTCTCACTTATTTAAA` = 0.14

----------
Could you please report measured cleaved RNA product abundance for the items listed next?
Test system: Bacillus subtilis
method_summary: cleaved RNA product abundance (RNA/gDNA barcode ratio) relative to median wild-type variant (ratio to wild type); higher = more accumulation of the downstream cleavage product
study_conditions: experiment (reporter, strain, medium): exp 8a: truncated aprE reporter, strain BJT201 with 2% xylose (RNase J1 expressed); cleavage site: glnRA (positions -5 to +31 mutated)

The measured cleaved RNA product abundance associated with `CGACATGTCCCGCTTCTTTCATTAATCCGATAGCAACTGTTTTGCTATATACATTTACCTTTTAAGAGGAGGAAT` reads 0.795

The measured cleaved RNA product abundance associated with `CGACATGTCCCGCTTCTTTCATTAATCCCTTAGCAACTGATTTGCTATATACATTTACCTTTTAAGAGGAGGAAT` reads 0.25

The measured cleaved RNA product abundance associated with `CGACATGTCCCGCTTCTTTCATTAATCCGTTAGCAACTTTTTTGCTATATACATTTACCGTTTAAGAGGAGGAAT` reads 1.51

The measured cleaved RNA product abundance associated with `CGACATGTCCCGCTTCTTTCATTAATCCGTTAGTAACTGTTTTGCTATATACATTTACTTTTTAAGAGGAGGAAT` reads 0.36

----------
Test system: Bacillus subtilis
method_summary: cleaved RNA product abundance (RNA/gDNA barcode ratio) relative to median wild-type variant (ratio to wild type); higher = more accumulation of the downstream cleavage product
study_conditions: experiment (reporter, strain, medium): exp 2b: truncated aprE reporter, strain BJT200; cleavage site: cggR-gapA (positions -7 to +36 mutated)
measure: cleaved RNA product abundance
Could you respond with only the numeric value?

The measured cleaved RNA product abundance associated with `ACAGACGAAGGAGCCGCAAAGAAGTAATTAAGGGATGAATAATCCCTCACTATAAATATCTCTCACTTATTTAAA` reads 0.135

The measured cleaved RNA product abundance associated with `ACAGACGAAGGAGCCGCAAAGCAGTTATTAAAGGATGAATAATCCCTCAATATAAATATCTCTCACTTATTTAAA` reads 0.136

The measured cleaved RNA product abundance associated with `ACAGACGAAGGAGCCGCAAAGAAGTTATTAAGCAATGAATAATCCCTCAATATAAATATCTCTCACTTATTTAAA` reads 0.0903

The measured cleaved RNA product abundance associated with `ACAGACGAAGGAGCCGCAAAGAAGTAATTAAGGGATGAATAATCCCTCAATATAAATATCTCTCACTTATTTAAA` reads 0.241

----------
Could you please report measured cleaved RNA product abundance for the items listed next?
Test system: Bacillus subtilis
method_summary: cleaved RNA product abundance (RNA/gDNA barcode ratio) relative to median wild-type variant (ratio to wild type); higher = more accumulation of the downstream cleavage product
study_conditions: experiment (reporter, strain, medium): exp 8a: truncated aprE reporter, strain BJT201 with 2% xylose (RNase J1 expressed); cleavage site: glnRA (positions -5 to +31 mutated)
Could you respond with only the numeric value?

The measured cleaved RNA product abundance associated with `CGACATGTCCCGCTTCTTTCATTAAACCGTTAGCAACTGTTTTGCTTTATACATTTACCTTTTAAGAGGAGGAAT` reads 0.165

The measured cleaved RNA product abundance associated with `CGACATGTCCCGCTTCTTTCATTAATCCGTTAGCAACTGTTTTGCTATATAAATTTACATTTTAAGAGGAGGAAT` reads 1.83

The measured cleaved RNA product abundance associated with `CGACATGTCCCGCTTCTTTCATTAATCCGTTAGCAACTGTTTTATTATATACATTTACCTTTTAAGAGGAGGAAT` reads 0.698

The measured cleaved RNA product abundance associated with `CGACATGTCCCGCTTCTTTCATTAATCCGTTTGCAAATGTTTTGCTATATACATTTACCTTTTAAGAGGAGGAAT` reads 0.446

The measured cleaved RNA product abundance associated with `CGACATGTCCCGCTTCTTTCATTAATACGTTAGCAACTGTTTTGCTATATACATTTACCTTTTAAGAGGAGGAAT` reads 0.97

The measured cleaved RNA product abundance associated with `CGACATGTCCCGCTTCTTTCATTAATCCGGTAGCAACTGTTATGCTATATACATTTACCTTTTAAGAGGAGGAAT` reads 1.02

The measured cleaved RNA product abundance associated with `CGACATGTCCCGCTTCTTTCATTAATCCGTTAGCAAATGTTTTGCTATATACATTTAACTTTTAAGAGGAGGAAT` reads 1.03

The measured cleaved RNA product abundance associated with `CGACATGTCCCGCTTCTTTCATTATTCCGTTAGCAACTGTTTTGCTATATACATCTACCTTTTAAGAGGAGGAAT` reads 1.15

The measured cleaved RNA product abundance associated with `CGACATGTCCCGCTTCTTTCATTAATGCGTTAGCAACTGTTTTACTATATACATTTACCTTTTAAGAGGAGGAAT` reads 0.324

The measured cleaved RNA product abundance associated with `CGACATGTCCCGCTTCTTTCATTAATGCGTTAGCAATTGTTTTGCTATATACATTTACCTTTTAAGAGGAGGAAT` reads 0.995

The measured cleaved RNA product abundance associated with `CGACATGTCCCGCTTCTTTCATTAATCCGTTAGCAACTGTTTTGCTGTATAAATTTACCTTTTAAGAGGAGGAAT` reads 0.199

The measured cleaved RNA product abundance associated with `CGACATGTCCCGCTTCTTTCATTACTCCGTTAGCAACTGTTTTCCTATATACATTTACCTTTTAAGAGGAGGAAT` reads 0.679

The measured cleaved RNA product abundance associated with `CGACATGTCCCGCTTCTTTCATTACTTCGTTAGCAACTGTTTTGCTATATACATTTACCTTTTAAGAGGAGGAAT` reads 1.57

The measured cleaved RNA product abundance associated with `CGACATGTCCCGCTTCTTTCATTAATTCGTTAACAACTGTTTTGCTATATACATTTACCTTTTAAGAGGAGGAAT` reads 0.209

The measured cleaved RNA product abundance associated with `CGACATGTCCCGCTTCTTTCATTAATCCCTTAGCAACTGTTTAGCTATATACATTTACCTTTTAAGAGGAGGAAT` reads 0.236

The measured cleaved RNA product abundance associated with `CGACATGTCCCGCTTCTTTCATTAATCCGTTAGTAACTGTTTTGCTACATACATTTACCTTTTAAGAGGAGGAAT` reads 0.318

The measured cleaved RNA product abundance associated with `CGACATGTCCCGCTTCTTTCATTAATCCGTTAGCAACTGTTTAGCTATATACATTTACCTTTTAAGAGGAGGAAT` reads 0.537

The measured cleaved RNA product abundance associated with `CGACATGTCCCGCTTCTTTCATTACTCCATTAGCAACTGTTTTGCTATATACATTTACCTTTTAAGAGGAGGAAT` reads 1.18

The measured cleaved RNA product abundance associated with `CGACATGTCCCGCTTCTTTCATTAATCCGTTTGCAACTGTTTTGCTATATACATTTACCATTTAAGAGGAGGAAT` reads 0.88

The measured cleaved RNA product abundance associated with `CGACATGTCCCGCTTCTTTCATTAATCCGTTAGCAACTGTTTTACTATATACATTTACCTTTTAAGAGGAGGAAT` reads 0.619

The measured cleaved RNA product abundance associated with `CGACATGTCCCGCTTCTTTCATTAATCCTTTAGCAACTGTTTTGCTATAAACATTTACCTTTTAAGAGGAGGAAT` reads 0.176

The measured cleaved RNA product abundance associated with `CGACATGTCCCGCTTCTTTCATTAATCCGTTAGCGACTGTTTTGATATATACATTTACCTTTTAAGAGGAGGAAT` reads 0.24

The measured cleaved RNA product abundance associated with `CGACATGTCCCGCTTCTTTCATTAATCCGGTAGCAACTGTTTTGCAATATACATTTACCTTTTAAGAGGAGGAAT` reads 0.533

The measured cleaved RNA product abundance associated with `CGACATGTCCCGCTTCTTTCATTAAACTGTTAGCAACTGTTTTGCTATATACATTTACCTTTTAAGAGGAGGAAT` reads 1.02

The measured cleaved RNA product abundance associated with `CGACATGTCCCGCTTCTTTCATTAAGCCGTTAGCAACTGTTTTGCTATATACATTTACCTTTTAAGAGGAGGAAT` reads 0.855

The measured cleaved RNA product abundance associated with `CGACATGTCCCGCTTCTTTCATTATCCCGTTAGCAACTGTTTTGCTATATACATTTACCTTTTAAGAGGAGGAAT` reads 1.49

The measured cleaved RNA product abundance associated with `CGACATGTCCCGCTTCTTTCATTAATCCGTCAGCAACTGTTTTGCTATATACATTTAACTTTTAAGAGGAGGAAT` reads 0.483

The measured cleaved RNA product abundance associated with `CGACATGTCCCGCTTCTTTCATTAATCCGTTAGCAACTGTTTTGCTATATACATTTCCTTTTTAAGAGGAGGAAT` reads 0.345

The measured cleaved RNA product abundance associated with `CGACATGTCCCGCTTCTTTCATTAATCCGTTAGCAACTGATTTGCTATATACATTTACCCTTTAAGAGGAGGAAT` reads 0.843

The measured cleaved RNA product abundance associated with `CGACATGTCCCGCTTCTTTCATTAAACCGTTAGCAACTGTTTTGCTATATACATTTTCCTTTTAAGAGGAGGAAT` reads 0.432
